Measured values drawn from the NIST ThermoML archive (doi:10.1016/j.jct.2013.09.043) for this set.

Below, each entry is listed with its recorded viscosity.
# RECORDED CONDITIONS: 308.15 K; 101 kPa; Liquid; Capillary tube (Ostwald / Ubbelohde) method
± gives the expanded uncertainty stated by the source.

{"columns": ["COMPOUND", "viscosity"],
 "data": [
  ["CC(C)O", "1.558 ± 0.063 mPa·s"],
  ["NC=O [formamide]", "2.64 ± 0.11 mPa·s"],
  ["CCCCC(C)O (stereo unspecified)", "2.819 ± 0.12 mPa·s"],
  ["CCCCCC(C)O (stereo unspecified)", "3.535 ± 0.14 mPa·s"],
  ["CCCC(C)O (stereo unspecified)", "2.348 ± 0.095 mPa·s"],
  ["CCC(C)O (stereo unspecified)", "2.125 ± 0.086 mPa·s"]
]}

---

# RECORDED CONDITIONS: 298.15 K; 101 kPa; Liquid; Capillary tube (Ostwald / Ubbelohde) method
Recorded viscosity values for a group of compounds are listed next.

{"columns": ["COMPOUND", "viscosity [mPa·s]"],
 "data": [
  ["CCCCC(C)O (stereo unspecified)", 4.101],
  ["CC(C)O", 2.077],
  ["CCC(C)O (stereo unspecified)", 3.034],
  ["CCCC(C)O (stereo unspecified)", 3.423],
  ["NC=O [formamide]", 3.305],
  ["CCCCCC(C)O (stereo unspecified)", 5.296]
]}

---

# RECORDED CONDITIONS: 303.15 K; 101 kPa; Liquid; Capillary tube (Ostwald / Ubbelohde) method
Classification field: 1 = viscosity at or over 3 mPa·s; -1 = viscosity under 3 mPa·s.

{"columns": ["COMPOUND", "ASSIGNED CLASS"],
 "data": [
  ["CCCCCC(C)O (stereo unspecified) [2-heptanol]", 1],
  ["CCCC(C)O (stereo unspecified) [pentan-2-ol]", -1],
  ["CC(C)O [propan-2-ol]", -1],
  ["CCC(C)O (stereo unspecified) [butan-2-ol]", -1],
  ["CCCCC(C)O (stereo unspecified) [2-hexanol]", 1]
]}

---

Each entry below carries its reported mass density.
# RECORDED CONDITIONS: 303.15 K; 101 kPa; Liquid; Vibrating tube method

{"columns": ["COMPOUND", "mass density / kg/m3"],
 "data": [
  ["NC=O [formamide]", 1125.1],
  ["CCCCC(C)O (stereo unspecified) [2-hexanol]", 806.13],
  ["CC(C)O [propan-2-ol]", 776.79],
  ["CCC(C)O (stereo unspecified) [butan-2-ol]", 798.89],
  ["CCCCCC(C)O (stereo unspecified) [2-heptanol]", 809.5],
  ["CCCC(C)O (stereo unspecified) [pentan-2-ol]", 800.88]
]}

---

# RECORDED CONDITIONS: 313.15 K; 101 kPa; Liquid; Vibrating tube method

{"columns": ["COMPOUND", "mass density, kg/m3"],
 "data": [
  ["CCCC(C)O (stereo unspecified)", 792.62],
  ["CCC(C)O (stereo unspecified)", 790.15],
  ["NC=O [formamide]", 1116.85],
  ["CCCCC(C)O (stereo unspecified)", 797.96],
  ["CCCCCC(C)O (stereo unspecified)", 801.46],
  ["CC(C)O", 767.76]
]}
